Reference for the values: ChEMBL document CHEMBL1126988

- System: Staphylococcus aureus
- test: Minimum inhibitory concentration was evaluated in vitro against Staphylococcus aureus H 228
- Assay type: functional
Below, each entry is listed alongside its reported MIC.
Number only, in µg/mL; omit the unit.

compound	MIC (µg/mL)
CCN[C@@H](C)[C@@H]1CCN(c2c(F)c(N)c3c(=O)c(C(=O)O)cn(C4CC4)c3c2F)C1 (stereo in doubt; 32H-S,R)	0.013
CN[C@H](C)[C@H]1CCN(c2cc3c(cc2F)c(=O)c(C(=O)O)cn3C2CC2)C1 (mixture of isomers)	0.2
C[C@@H](N)[C@H]1CCN(c2cc3c(cc2F)c(=O)c(C(=O)O)cn3C2CC2)C1	0.4
C[C@@H](N)[C@H]1CCN(c2cc3c(cc2F)c(=O)c(C(=O)O)cn3C2CC2)C1 (racemic)	0.05
CN[C@@H](C)[C@@H]1CCN(c2nc3c(cc2F)c(=O)c(C(=O)O)cn3C2CC2)C1	0.2
CN[C@H](C)[C@H]1CCN(c2c(F)c(N)c3c(=O)c(C(=O)O)cn(C4CC4)c3c2F)C1 (mixture of isomers)	0.003
C[C@@H](N)[C@H]1CCN(c2nc3c(cc2F)c(=O)c(C(=O)O)cn3C2CC2)C1 (mixture of isomers)	0.025
CCN[C@@H](C)[C@@H]1CCN(c2c(F)c(N)c3c(=O)c(C(=O)O)cn(C4CC4)c3c2F)C1 (stereo in doubt; 32H-S,S)	0.1

Incoming: # lookup: MIC of C[C@@H](N)[C@H]1CCN(c2nc3c(cc2F)c(=O)c(C(=O)O)cn3C2CC2)C1 (racemic)
Outgoing: 0.2

----------
Below, each entry is listed alongside its reported MIC.
- System: Enterobacter cloacae
- test: Minimum inhibitory concentration in vitro against Enterobacter cloacae MA 2646
- Format: functional
- test context: Enterobacter cloacae; read-out: MIC
Number only, in µg/mL; omit the unit.

Incoming: // map CCNCC1CCN(c2c(F)c(N)c3c(=O)c(C(=O)O)cn(C4CC4)c3c2F)C1 (stereo not given) to recorded MIC (system: Enterobacter cloacae)
Outgoing: 0.05

Incoming: // map CCN[C@@H](C)[C@H]1CCN(c2cc3c(cc2F)c(=O)c(C(=O)O)cn3C2CC2)C1 to recorded MIC (system: Enterobacter cloacae)
Outgoing: 0.4

Incoming: // map CNCC1CCN(c2cc3c(cc2F)c(=O)c(C(=O)O)cn3C2CC2)C1 (stereo not given) to recorded MIC (system: Enterobacter cloacae)
Outgoing: 0.2

Incoming: // map Nc1c(F)c(N2CCC(N)C2)c(F)c2c1c(=O)c(C(=O)O)cn2C1CC1 (stereo not given) to recorded MIC (system: Enterobacter cloacae)
Outgoing: 0.013

Incoming: // map CCN[C@H](C)[C@@H]1CCN(c2cc3c(cc2F)c(=O)c(C(=O)O)cn3C2CC2)C1 to recorded MIC (system: Enterobacter cloacae)
Outgoing: 0.2

----------
- Tested on: Enterococcus faecalis
- test: Minimum inhibitory concentration was evaluated in vitro against Enterococcus faecalis MGH-2
- Type: functional
Mark T for MIC under 0.1 µg/mL, F if at or over.

Recorded results for 5 compounds are shown here.
compound	assigned class
CCN[C@H](C)[C@H]1CCN(c2cc3c(cc2F)c(=O)c(C(=O)O)cn3C2CC2)C1 (mixture of isomers; form 1)	F
CCN[C@@H](C)[C@@H]1CCN(c2c(F)c(N)c3c(=O)c(C(=O)O)cn(C4CC4)c3c2F)C1 (stereo in doubt; 32H-S,R)	T
CC(N)C1CCN(c2c(F)cc3c(=O)c(C(=O)O)cn(C4CC4)c3c2C(F)(F)F)C1 (stereo in doubt; 36F-R,R)	F
C[C@@H](N)[C@H]1CCN(c2nc3c(cc2F)c(=O)c(C(=O)O)cn3C2CC2)C1 (mixture of isomers)	T
CCN[C@@H](C)[C@@H]1CCN(c2nc3c(cc2F)c(=O)c(C(=O)O)cn3C2CC2)C1	F

Incoming: I wonder whether C[C@@H](N)[C@H]1CCN(c2cc3c(cc2F)c(=O)c(C(=O)O)cn3C2CC2)C1 has MIC below 0.1 µg/mL. Can you tell?
Outgoing: F

Incoming: I wonder whether C[C@H](N)[C@H]1CCN(c2c(F)c(N)c3c(=O)c(C(=O)O)cn(C4CC4)c3c2F)C1 (stereo in doubt; 32F-S,R) has MIC below 0.1 µg/mL. Can you tell?
Outgoing: T

Incoming: I wonder whether CCN[C@@H](C)[C@@H]1CCN(c2nc3c(cc2F)c(=O)c(C(=O)O)cn3C2CC2)C1 (racemic) has MIC below 0.1 µg/mL. Can you tell?
Outgoing: T

Incoming: I wonder whether C[C@@H](N)[C@H]1CCN(c2cc3c(cc2F)c(=O)c(C(=O)O)cn3C2CC2)C1 (racemic) has MIC below 0.1 µg/mL. Can you tell?
Outgoing: T

Incoming: I wonder whether CN[C@H](C)[C@H]1CCN(c2c(F)c(N)c3c(=O)c(C(=O)O)cn(C4CC4)c3c2F)C1 (mixture of isomers) has MIC below 0.1 µg/mL. Can you tell?
Outgoing: T
